assay: blockers of mitochondrial fusion, WT vs mutant – cell-based, chemical genetic, wild-type and mutant, confirmation (AID 1361); details: Cell-based mitochondrial fusion phenotype, imaging, WT cells
The source made the active and inactive calls. How the calls were made is not given here.
Outcomes: true (1) (active), false (0) (inactive)

| molecule | label |
| --- | --- |
| Cc1cc(-c2ccccc2)nc2cc(C(=O)N(Cc3ccccc3)Cc3ccccc3)nn12 | true (1) |
| Cc1ccc(Nc2ccc(C(=O)O)cc2N)cc1 | false (0) |
| CCOc1ccc(NC(=S)N(CCc2c(C)[nH]c3ccc(C)cc23)Cc2ccco2)cc1 | true (1) |
| O=C(COC(=O)CC(c1ccccc1)c1ccccc1)NCc1ccc(Cl)cc1 | true (1) |
| CCOC(=O)C1=C(NC(=S)NC(=O)c2ccccc2)c2ccccc2CC1(C)CC (stereo not drawn) | true (1) |
| COc1cccc(OC)c1OCCCCN1CCCC1 | false (0) |
| CCN(Cc1cc2ccc(C)cc2[nH]c1=O)C(=O)c1ccncc1 | false (0) |
| CN(C)C(=O)CSc1nnc(CCCCCNC(=O)OC(C)(C)C)o1 | false (0) |
| S=C(Nc1ccccc1Oc1ccccc1)Nc1cccc(Cl)c1Cl | true (1) |
| CCOC(=O)c1c(NS(=O)(=O)c2ccc(Br)cc2)sc2c1CCC2 | true (1) |
| CC(C)Cn1c(CN(Cc2ccccc2)Cc2ccccc2)nc2c1c(=O)n(C)c(=O)n2C | true (1) |
| Cc1ccc(NC(=O)CC2S/C(=N/N=C3\CCCc4ccccc43)NC2=O)cc1 (stereo not drawn) | true (1) |
| CCOc1cc(C2Nc3ccccc3C(=O)N2c2ccccc2OC)ccc1O (stereo not drawn) | false (0) |
| Cc1cc(C)cc(NC(=S)Nc2cccc3cnccc23)c1 | false (0) |
| CC(=O)N(C)c1nnc(-c2cnccn2)s1 | false (0) |
| CCCCc1nc2ccccc2c(=O)n1-c1ccc(Cl)cc1[N+](=O)[O-] | false (0) |
| CCCCCC(=O)O[C@]1(C(C)=O)CC[C@H]2[C@@H]3CCC4=CC(=O)CC[C@]4(C)[C@H]3CC[C@@]21C | true (1) |
| Cc1ccc(SC(C)C(=O)Nc2ccccc2-c2ccccc2)cc1 (stereo not drawn) | true (1) |
| Cc1c(N2C(=O)c3cccc4cccc(c34)C2=O)c(=O)n(-c2ccccc2)n1C | false (0) |
| CCOC(=O)c1sc(NC(=O)/C=C/c2cnn(C)c2C)c(C(=O)OC(C)C)c1C | false (0) |
| CCOC(=O)c1c(C)[nH]c(C)c1C(=O)COC(=O)c1cc2ccccc2cc1O | true (1) |
| COc1cc(SC)ccc1C(=O)NCC1CCCO1 (stereo not drawn) | false (0) |
| COc1ccc(NS(=O)(=O)c2ccc3oc(Nc4ccc5c(c4)OCCO5)nc3c2)cc1 | true (1) |
| O=C(CNC(=S)N(Cc1ccccc1)Cc1ccccc1F)NCc1ccccc1 | true (1) |
| COc1c(F)c(F)c(C(=O)O)c(Nc2ccccc2C)c1F | false (0) |
| O=C(Cc1c(O)c2ccccc2[nH]c1=O)NCc1ccccc1F | false (0) |
| O=C(c1ccc2c(c1)OCO2)N(Cc1cccs1)C1(C(=O)NC2CCCCC2)CCCCC1 | false (0) |
| Cc1ccc(NC(=O)C2SC(=Nc3ccccc3)C(C(=O)Nc3ccc(Cl)cc3)=C2N)cc1 (stereo not drawn) | false (0) |
| CCOC(=O)Cn1c(=NC(=O)c2ccc([N+](=O)[O-])s2)sc2ccccc21 | true (1) |
| CCOC(=O)c1c(NC(=O)C2CCN(S(=O)(=O)c3cccs3)CC2)sc(C)c1C | false (0) |
| N#CCC(=O)N/N=C/c1cc(-c2ccccc2)n(-c2ccc(Cl)cc2)c1-c1ccccc1 | true (1) |
| Oc1ccc2ccccc2c1/C=N/c1nc2c(s1)CCCC2 | false (0) |
| Cc1ccc(C(c2nnnn2CCc2ccccc2)N2CCC(C)CC2)cc1 (stereo not drawn) | false (0) |
| Cc1ccc(NNC(=S)Nc2ccc(C(C)C)cc2)c(C)c1 | true (1) |
| COc1ccc(NC(=S)N(CCc2c(C)[nH]c3ccc(C)cc23)Cc2ccco2)cc1 | true (1) |
| CCOC(=O)C1=C(Nc2ccccc2)CC(C)(O)C(C(=O)OCC)C1c1ccc(Cl)cc1 (stereo not drawn) | true (1) |
| O=C(Nc1ccc2c(c1)OCO2)c1ccccc1SCC(=O)N1CCCC1 | false (0) |
| CCOC(=O)c1c(C)[nH]c(C(=O)OCC(=O)Nc2cc(Cl)ccc2OC)c1C | false (0) |
| CC(C)(C)c1ccc(OCC(=O)N2CCCCCC2)c(Br)c1 | false (0) |
| Cc1nc(N2CCC(C)CC2)c2c(C)c(C(=O)Nc3cc(F)ccc3C)sc2n1 | true (1) |
| COc1ccc2nc(NC(=O)c3cccc(OCc4c(C)noc4C)c3)sc2c1 | false (0) |
| CCCCSc1nnc(-c2ccccc2)c2ccccc12 | false (0) |
| Cc1ccc2c(N)c(C#N)sc2n1 | false (0) |
